Hey, just so you know, these numbers are from patent US10155722B2.

Target: IDH2 (R172K, 40-end) (Homo sapiens (Human), UniProt P48735, R172K)
Sequence (P48735 40-452 R172K): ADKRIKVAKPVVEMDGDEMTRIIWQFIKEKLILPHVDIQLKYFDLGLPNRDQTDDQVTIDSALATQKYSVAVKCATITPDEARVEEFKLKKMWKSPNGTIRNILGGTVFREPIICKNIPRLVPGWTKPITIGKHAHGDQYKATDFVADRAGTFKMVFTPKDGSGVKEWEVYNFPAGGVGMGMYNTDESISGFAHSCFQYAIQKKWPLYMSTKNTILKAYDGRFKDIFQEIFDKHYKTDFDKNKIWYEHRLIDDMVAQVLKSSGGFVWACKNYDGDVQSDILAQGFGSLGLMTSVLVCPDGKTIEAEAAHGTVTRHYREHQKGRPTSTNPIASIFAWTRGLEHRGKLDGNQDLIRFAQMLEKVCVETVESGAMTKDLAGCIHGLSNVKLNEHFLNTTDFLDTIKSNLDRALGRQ
Test: IDH2 (R172K, 40-end) inhibitory activity, NADPH depletion with diaphorase/resazurin readout
Type: biochemical
Settings: 80 nM enzyme, 40 μM NADPH, 4 mM α-KG
Value type: IC50 (nM)
Numbers only, in nM.

// solved cases for IC50 follow
>>> measured_value("CCC(C(=O)NC1CC1)c1ccc(-c2ccsc2)c(NC(=O)Nc2cccc(C(F)(F)F)c2)c1 (stereo not shown)")
362
>>> measured_value("NC(C(=O)NC1CC1)c1ccc(-c2ccsc2)c(NC(=O)Nc2cccc(C(F)(F)F)c2)c1 (stereo not shown)")
622
>>> measured_value("Cc1cc(-c2ccc(C(F)(F)C(=O)NC3CC3)cc2NC(=O)Nc2cccc(C(F)(F)F)c2)n(C)n1")
106

Now turn to the next compound.
In: For CC(NC(=O)C1CC1)c1ccc(-c2ccsc2)c(NC(=O)Nc2cccc(C(F)(F)F)c2)c1 (stereo not shown) , write its IC50.
Out: 82.9

###

Experiment: Pharmacokinetics parameters in rats after intragastric administration
Type: in vivo
Conditions: rat, po; male rats, intragastric, single dose 5 mg/kg, plasma
Value type: Tmax (min)
Give bare numbers, in min.

>>> measured_value("O=C(Nc1cccc(C(F)(F)F)c1)Nc1cc(S(=O)(=O)NC2CC2)ccc1-c1ccsc1 [AGI-6780, reference compound]")
170
>>> measured_value("O=C(Nc1cccc(C(F)(F)F)c1)Nc1cc(C(F)(F)C(=O)NC2COC2)ccc1-c1ccsc1 [Example 5]")
25.2

In: For O=C(Nc1cccc(C(F)(F)F)c1)Nc1cc(CNC(=O)C2CC2)ccc1-c1ccsc1 [Example 28] , write its Tmax.
Out: 19.8

###

Test: Pharmacokinetics parameters in rats after intragastric administration
Type: in vivo
Conditions: rat, po; male rats, intragastric, single dose 5 mg/kg, plasma
Value type: half-life

// solved cases for half-life follow
>>> measured_value("O=C(Nc1cccc(C(F)(F)F)c1)Nc1cc(S(=O)(=O)NC2CC2)ccc1-c1ccsc1 [AGI-6780, reference compound]")
"1.49 h"
>>> measured_value("O=C(Nc1cccc(C(F)(F)F)c1)Nc1cc(CNC(=O)C2CC2)ccc1-c1ccsc1")
"2.34 h"

Now turn to the next molecule.
In: For O=C(Nc1cccc(C(F)(F)F)c1)Nc1cc(C(F)(F)C(=O)NC2COC2)ccc1-c1ccsc1 , write its half-life.
Out: 4.37 h

###

Biological target: IDH2 (R172K, 40-end) (Homo sapiens (Human), UniProt P48735, R172K)
Assay: IDH2 (R172K, 40-end) inhibitory activity, NADPH depletion with diaphorase/resazurin readout
Conditions: 80 nM enzyme, 40 μM NADPH, 4 mM α-KG
Answer each item with its documented log10(IC50).
Please be aware that the numbers have been log10-transformed from IC50 in nM.

// solved cases for log10(IC50) follow
>>> measured_value("O=C(Nc1cccc(C(F)(F)F)c1)Nc1cc(C(F)(F)C(=O)NC2CC2)ccc1-c1ccccc1")
1.73
>>> measured_value("N#CC1(NC(=O)C(F)(F)c2ccc(-c3ccsc3)c(NC(=O)Nc3cccc(C(F)(F)F)c3)c2)CC1")
1.75
>>> measured_value("CC(NC1CC1)c1ccc(-c2ccsc2)c(NC(=O)Nc2cccc(C(F)(F)F)c2)c1 (stereo not shown)")
2.49

Please give log10(IC50) for each item listed below.
1. O=C(Cc1ccc(-c2ccsc2)c(NC(=O)Nc2cccc(C(F)(F)F)c2)c1)NC1CC1
2. O=C(Nc1cccc(C(F)(F)F)c1)Nc1cc(CNC(=O)C2CC2)ccc1-c1ccsc1
3. O=C(Nc1cccc(C(F)(F)F)c1)Nc1cc(C2(C(=O)NC3CC3)CC2)ccc1-c1ccsc1
4. O=C(Nc1cccc(C(F)(F)F)c1)Nc1cc(C(F)(F)C(=O)NC2CC2)ccc1-c1ccsc1
5. O=C(Nc1cccc(C(F)(F)F)c1)Nc1cc(C(=O)NC2CC2)ccc1-c1ccsc1
6. CC(C)(C(=O)NC1CC1)c1ccc(-c2ccsc2)c(NC(=O)Nc2cccc(C(F)(F)F)c2)c1
7. O=C(Nc1ccc(F)c(C(F)(F)F)c1)Nc1cc(C(F)(F)C(=O)NC2CC2)ccc1-c1ccsc1

Out:
[1.88, 1.74, 2.14, 1.15, 2.74, 1.82, 2.59]

###

Molecular target: IDH2 (R172K, 40-end) (Homo sapiens (Human), UniProt P48735, R172K)
Experiment: IDH2 (R172K, 40-end) inhibitory activity, NADPH depletion with diaphorase/resazurin readout
Conditions: 80 nM enzyme, 40 μM NADPH, 4 mM α-KG
pIC50: −log10 of the molar value.
Binary call on pIC50: class 1 from 7 upward, class 0 beneath that.

>>> category_label("CC(C)(C(=O)NC1CC1)c1ccc(-c2ccsc2)c(NC(=O)Nc2ccc3c(c2)C(=O)NC3)c1")
"class 0"
>>> category_label("O=C(Nc1cccc(C(F)(F)F)c1)Nc1cc(C(F)(F)C(=O)NCC(F)(F)F)ccc1-c1ccsc1")
"class 1"

Proceed to the following item.
In: Would you say O=C(Nc1cccc(C(F)(F)F)c1)Nc1cc(C(F)(F)C(=O)NC2COC2)ccc1-c1ccsc1 shows pIC50 at minimum 7?
Out: class 1

###

Answer each item with its documented pIC50.
Biological target: IDH2 (R172K, 40-end) (Homo sapiens (Human), UniProt P48735, R172K)
Assay: IDH2 (R172K, 40-end) inhibitory activity, NADPH depletion with diaphorase/resazurin readout
Assay type: biochemical
Conditions: 80 nM enzyme, 40 μM NADPH, 4 mM α-KG
Answers are plain numbers, as −log10 of the molar value.

>>> measured_value("CC(C(=O)NC1CC1)c1ccc(-c2ccsc2)c(NC(=O)Nc2cccc(C(F)(F)F)c2)c1 (stereo not drawn) [Example 14]")
7.16

Please give pIC50 for each item listed below.
1. O=C(Nc1cccc(C(F)(F)F)c1)Nc1cc(C2(C(=O)NC3CC3)CCC2)ccc1-c1ccsc1 [Example 19]
2. CC(C)NC(=O)C(F)(F)c1ccc(-c2ccsc2)c(NC(=O)Nc2cccc(C(F)(F)F)c2)c1 [Example 3]

Out:
1: 7.06; 2: 7.21
